System: M. tuberculosis H37Rv growth inhibition
Assay: M. tuberculosis H37Rv growth inhibitors, H37Rv strain (AID 1626)
Conditions: measured here: Vero cell cytotoxicity
experimental endpoint: CC50 (µM)

1) CC1CCN(c2nc(CN3CCCCC3)nc3scc(-c4ccccc4)c23)CC1 | 34.9
2) Cc1ccc(N/C(N)=N/c2nc(C)cc(N3CCCCC3)n2)c(C)c1 | 9.19
3) Cc1ccc(-n2nnnc2Sc2nc([N+](=O)[O-])nn2C)cc1C | 37.6
4) CC(C)c1ccc(Nc2nc(NCc3ccco3)nc(N3CCOCC3)n2)cc1 | 34.6
5) COc1ccc(NS(=O)(=O)c2cc(NC(=O)[C@@H](NC(=O)c3ccccc3)C(C)C)ccc2C)cc1 | 23.3
